Experimental Target: T1, Human LRP-8 (isoform 3) expressed on cells (human, UniProt Q14114 33-963)
T1 construct: also called hLRP-8; huLRP-8
T1 sequence (Q14114 other isoform, or with tags, fused parts or gaps limits assumed): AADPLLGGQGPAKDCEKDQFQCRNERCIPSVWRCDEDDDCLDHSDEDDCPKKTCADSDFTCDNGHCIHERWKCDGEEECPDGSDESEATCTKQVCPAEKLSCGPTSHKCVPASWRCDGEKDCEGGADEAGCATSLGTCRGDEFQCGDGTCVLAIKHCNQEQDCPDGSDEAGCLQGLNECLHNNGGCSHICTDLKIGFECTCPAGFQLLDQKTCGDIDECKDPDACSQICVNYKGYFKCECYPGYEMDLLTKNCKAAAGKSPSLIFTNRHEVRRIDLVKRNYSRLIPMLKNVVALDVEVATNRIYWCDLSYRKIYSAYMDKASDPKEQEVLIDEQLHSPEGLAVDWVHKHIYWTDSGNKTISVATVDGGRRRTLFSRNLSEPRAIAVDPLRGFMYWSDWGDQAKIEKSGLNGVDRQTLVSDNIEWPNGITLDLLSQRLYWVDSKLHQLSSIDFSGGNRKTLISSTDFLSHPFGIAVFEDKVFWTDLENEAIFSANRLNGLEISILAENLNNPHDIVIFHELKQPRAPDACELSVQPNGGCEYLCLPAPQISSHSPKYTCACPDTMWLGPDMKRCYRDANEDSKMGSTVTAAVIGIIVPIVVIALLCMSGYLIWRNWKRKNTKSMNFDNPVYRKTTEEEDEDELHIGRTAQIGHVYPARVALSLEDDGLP
Assay Procedure: cell-based binding assay, hLRP8
Let's look at some binders and their measured EC50.

{"Binder": "anti-LRP-8 BGK-9D10-2 antibody (CL-105967) (antibody, V domains shown, also called BGT-9D10-2) VH: EVQLVESGGGLVQSGRSLKLSCAASGFTFSNYYMAWVRQAPKKGLEWVATITTSGSRSFYPDSVKGRFTISRDNAKSSLYLQINSLKSEDTATYYCARRGPLGYFDHWGRGVMVTVSS VL: DIQMTQSPPSLPASLGDKVTITCQASQNINKYIAWYQQKPGKAPRLLIRFTSTLESDTPSRFSGSGSGRDYSFSISNVESEDFASYYCLHYDNLPPWTFGGGTKLELK", "Uom": "nM", "EC50": 2.29}
{"Binder": "chimeric anti-LRP-8 ML199.11H1.5B2 antibody [mu/hu IgG1/k] LALA (antibody, V domains shown, Mouse variable domains on human IgG1/kappa with L234A, L235A (LALA); also called ML199.11H1.5B2 hFc; ML199.11H1.5B2 mu/hu IgG1 m/k) VH: EVQLVESGGDLVKPGGSLKLSCAASRFTFSNYGMSWVRQTPDKRLEWVATISSGGRYTYYPDSVKGRFTISRDNAKNTLYLQMSSLRSEDTAMYYCARDYLYAMDYWGQGTSVTVSS VL: DVVMTQTPLSLPVSLGDQASISCRSSQSLVYSNGNTYLHWYLQKPGQSPKVLMYKVSNRFSGVSDRFSGSGSGTDFTLKISRVEAEDLGVYFCSQSTHVPLTFGAGTKLELK", "Uom": "nM", "EC50": 0.22}
{"Binder": "anti-LRP-8 BGK-6B5-2 chimeric antibody (CL-105969) (antibody, V domains shown) VH: QVSLQESGPGILQPSQTLSLTCTFSGFSLSTFGMGVGWIRQPSGKGLEWLANIWWDDDKYYNPSLKNRLTISKDTSNNQAFLKITNVDTADTATYYCARTAKPYYFDYWGHGVMVTVSS VL: HFVLAQPNSVSTNLGNTVKLSCKRSTGNIGSNYVNWYQQHEGRSPTTLIYRDDKRPDGVPDRFSGSFDRSSNSALLTINNVQTEDEADYFCQSYNSGINFFGGGTKLTVL", "Uom": "nM", "EC50": 0.15}
